Entry source: ChEMBL document CHEMBL5036372

assay comment: Terminal half life in CD-1 mouse at 25 nmol, iv measured upto 480 mins by UV-Vis spectrophotometer method
Assay type: ADME, organism-based
condition summary: in vivo, read-out: beta t1/2
attribute measured: half-life (min)
Numeric only. Scale: min

# molecule CC1(C)C(/C=C/C2=C(Cl)C(=C/C=C3/N(CCCCCC(=O)O)c4ccc(I)cc4C3(C)C)/C[N+](C)(C)C2)=[N+](CCCCCC(=O)O)c2ccc(I)cc21 ; its half-life = 55
